Target: Atrial natriuretic peptide receptor 3 (Homo sapiens)
Sequence (P17342 whole entry): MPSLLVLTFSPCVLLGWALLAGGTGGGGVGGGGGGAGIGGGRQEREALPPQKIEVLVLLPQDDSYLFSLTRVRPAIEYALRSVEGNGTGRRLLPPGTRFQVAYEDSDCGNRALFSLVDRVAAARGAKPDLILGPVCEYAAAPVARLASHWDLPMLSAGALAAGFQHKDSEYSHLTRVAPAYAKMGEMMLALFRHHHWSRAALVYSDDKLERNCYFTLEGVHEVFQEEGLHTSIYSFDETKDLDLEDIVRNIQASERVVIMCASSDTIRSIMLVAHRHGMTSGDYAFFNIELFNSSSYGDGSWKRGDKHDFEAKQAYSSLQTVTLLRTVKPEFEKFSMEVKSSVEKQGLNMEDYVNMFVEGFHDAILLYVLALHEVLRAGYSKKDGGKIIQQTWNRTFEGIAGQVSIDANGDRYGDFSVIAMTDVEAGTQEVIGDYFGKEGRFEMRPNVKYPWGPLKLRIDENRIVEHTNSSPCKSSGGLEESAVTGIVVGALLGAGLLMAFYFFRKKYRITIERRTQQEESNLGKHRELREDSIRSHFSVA
Experiment: Displacement of [125I]- ANP from the Atrial Natriuretic Peptide Clearance Receptor.
Type: tissue-based, Cardiac atrium
Numbered stars: 1 amine (or outer) side, 2 acyl side, 3 side chain; on linkers, the order of the positions; unused ones are H or OH. Square brackets hold non-standard residues; d marks the D form. Peptide text beside a SMILES is read from it. * marks the point of attachment. NH(2S-methylbutyl) = CC[C@H](C)CN*; 2Naphthoyl = O=C(c1ccc2ccccc2c1)*; X1 = O=C(Cc1ccc(N[*:1])cc1)[*:2]; X2 = CCC[C@H](C)CN*
Recorded Ki for the following compounds
Record the value in µM, omitting the unit from your answer.

## Input Item CC[C@H](C)CNC(=O)[C@H](CCCN=C(N)N)NC(=O)[C@H](CC(=O)O)NC(=O)[C@@H](NC(=O)[C@H](C)NC(=O)Cc1ccc(NC(=O)c2ccc3ccccc3c2)cc1)[C@@H](C)CC (2Naphthoyl-[X1]AIDR-{NH(2S-methylbutyl)}) has what recorded Ki?
## Output 0.0003

## Input Entry CCC[C@H](C)CNC(=O)[C@H](CCCNC(=N)N)NC(=O)[C@H](CC(=O)O)NC(=O)[C@@H](NC(=O)[C@H](CCCNC(=N)N)NC(C)=O)[C@@H](C)CC (Ac-RIDR-X2) please
## Output 2.9

## Input Entry CC[C@H](C)CNC(=O)[C@H](CCCN=C(N)N)NC(=O)[C@H](CC(=O)O)NC(=O)[C@@H](NC(=O)[C@H](CCCN=C(N)N)NC(=O)Cc1ccc(NC(=O)c2ccc3ccccc3c2)cc1)[C@@H](C)CC (2Naphthoyl-[X1]RIDR-{NH(2S-methylbutyl)}) please
## Output 0.00048

## Input Entry CC[C@H](C)CNC(=O)[C@H](CCCN=C(N)N)NC(=O)[C@H](CC(=O)O)NC(=O)[C@H](C)NC(=O)[C@H](CCCN=C(N)N)NC(=O)Cc1ccc(NC(=O)c2ccc3ccccc3c2)cc1 (2Naphthoyl-[X1]RADR-{NH(2S-methylbutyl)}) please
## Output 0.68

## Input Entry CC[C@H](C)[C@H](NC(=O)[C@H](CCCNC(=N)N)NC(=O)Cc1ccc(NC(=O)c2ccc3ccccc3c2)cc1)C(=O)N[C@@H](CC(=O)O)C(=O)N[C@@H](CCCNC(=N)N)C(N)=O (2Naphthoyl-[X1]RIDR-NH2) please
## Output 2.6

## Input Entry CC[C@H](C)CNC(=O)[C@H](C)NC(=O)[C@H](CC(=O)O)NC(=O)[C@@H](NC(=O)[C@H](C)NC(=O)Cc1ccc(NC(=O)c2ccc3ccccc3c2)cc1)[C@@H](C)CC (2Naphthoyl-[X1]AIDA-{NH(2S-methylbutyl)}) please
## Output 0.065

====

Numbered stars: 1 amine (or outer) side, 2 acyl side, 3 side chain; on linkers, the order of the positions; unused ones are H or OH. Square brackets hold non-standard residues; d marks the D form. Peptide text beside a SMILES is read from it. * marks the point of attachment. NH(2S-methylbutyl) = CC[C@H](C)CN*; 2Naphthoyl = O=C(c1ccc2ccccc2c1)*; X1 = O=C(Cc1ccc(N[*:1])cc1)[*:2]
Heads up, these molecules all have Ki values measured for Atrial natriuretic peptide receptor 1 (Homo sapiens, UniProt P16066).

- Molecule: "CC[C@H](C)CNC(=O)[C@H](CCCN=C(N)N)NC(=O)[C@H](CC(=O)O)NC(=O)[C@@H](NC(=O)[C@H](C)NC(=O)Cc1ccc(NC(=O)c2ccc3ccccc3c2)cc1)[C@@H](C)CC (2Naphthoyl-[X1]AIDR-{NH(2S-methylbutyl)})"
  System Under Test: "Atrial natriuretic peptide receptor 1 (Homo sapiens, UniProt P16066)"
  Ki: "0.3 nM"
- Molecule: "CC[C@H](C)[C@@H]1NC(=O)[C@H](CCCN=C(N)N)NC(=O)[C@H](CC(=O)O)NC(=O)[C@H]([C@@H](C)CC)NC(=O)[C@H](CCCN=C(N)N)NC(=O)CNC(=O)CNC(=O)[C@H](Cc2ccccc2)NC(=O)[C@H](NC(=O)[C@H](CO)NC(=O)[C@H](CO)NC(=O)[C@@H](N)CCCN=C(N)N)CSSC[C@H](C(=O)O)NC(=O)[C@H](C)NC(=O)CNC1=O"
  System Under Test: "Atrial natriuretic peptide receptor 1 (Homo sapiens, UniProt P16066)"
  Ki: "> 10 nM"

Now let's try a different one.
## Input Item CC[C@H](C)[C@@H]1NC(=O)[C@H](C)NC(=O)CNC(=O)CNC(=O)[C@H](Cc2ccccc2)NC(=O)[C@H](N)CSSC[C@H](C(=O)O)NC(=O)CNC(=O)[C@H](CC(C)C)NC(=O)CNC(=O)[C@H](CO)NC(=O)[C@H](CCC(N)=O)NC(=O)[C@H](C)NC(=O)CNC(=O)[C@H]([C@@H](C)CC)NC(=O)[C@H](CCCN=C(N)N)NC(=O)[C@H](CC(=O)O)NC1=O has what recorded Ki?
## Output 0.49 nM
